Target: GSK3β kinase (Homo sapiens, UniProt P49841)
Sequence (P49841 whole entry): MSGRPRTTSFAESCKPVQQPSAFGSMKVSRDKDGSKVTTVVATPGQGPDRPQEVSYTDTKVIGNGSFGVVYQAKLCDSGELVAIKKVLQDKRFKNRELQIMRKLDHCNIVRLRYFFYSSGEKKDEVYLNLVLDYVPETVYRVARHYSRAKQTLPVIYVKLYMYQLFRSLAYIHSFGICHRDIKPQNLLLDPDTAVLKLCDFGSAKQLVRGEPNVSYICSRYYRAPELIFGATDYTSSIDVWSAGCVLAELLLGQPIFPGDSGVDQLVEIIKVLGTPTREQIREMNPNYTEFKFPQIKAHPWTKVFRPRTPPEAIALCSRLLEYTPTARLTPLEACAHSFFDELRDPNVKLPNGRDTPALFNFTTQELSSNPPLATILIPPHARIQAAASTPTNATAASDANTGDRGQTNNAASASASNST
Test: GSK3β kinase activity (Ser/Thr 09 peptide Z-lyte FRET assay)
Format: biochemical
Conditions: recombinant kinase, 46 μM ATP, one hour at room temperature; read-out: EC50
ASSAY_ENDPOINT: EC50 (µM)
Kindly provide the numeric value in µM only, without the unit symbol.

O=C(Nc1cc2nc(-c3cnco3)ccc2cn1)c1ccc(OC2CCNCC2)cc1 [Compound 4551] = 4.24
O=C(Nc1ncc2ccc(-c3cnco3)cc2n1)C1CCN(C(=O)CN2CCCC2)CC1 [Compound 1438] = 5.18

Next:
Task: Recorded EC50 for CC(C)CN1CCC(C(=O)Nc2ncc3ccc(-c4cnn(C)c4)cc3n2)CC1 [Compound 923] with GSK3β kinase (Homo sapiens, UniProt P49841), please?
Output: 0.204
